Target: Free fatty acid receptor 1 (Homo sapiens, UniProt O14842)
Sequence (O14842 whole entry): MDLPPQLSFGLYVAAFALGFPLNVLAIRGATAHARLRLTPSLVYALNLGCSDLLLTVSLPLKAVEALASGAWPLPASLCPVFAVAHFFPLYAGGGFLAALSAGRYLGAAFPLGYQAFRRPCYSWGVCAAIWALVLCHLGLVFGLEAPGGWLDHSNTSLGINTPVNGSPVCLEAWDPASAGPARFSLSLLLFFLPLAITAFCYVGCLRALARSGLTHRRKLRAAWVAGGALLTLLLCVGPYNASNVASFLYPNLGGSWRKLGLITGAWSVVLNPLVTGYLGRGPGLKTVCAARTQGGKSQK
Test: Agonist activity at recombinant human GPR40 expressed in HEK293 cells assessed as increase in IP1 accumulation measured after 60 mins by HTRF assay relative to AM-1638
Type: functional, cell-based
reported-metric: max activation

Recorded max activation for COc1cc(-c2ccc(C3CCc4ccc([C@H](C5CC5)[C@H](C)C(=O)O)cc4O3)c(F)c2)c(F)cn1 (stereo in doubt; 26) with Free fatty acid receptor 1 (Homo sapiens, UniProt O14842), please?
> 179%

Recorded max activation for COc1cc(-c2ccc(C3CCc4ccc([C@H](C5CC5)[C@H](C)C(=O)O)cc4O3)c(F)c2)ccn1 (mixture of isomers) with Free fatty acid receptor 1 (Homo sapiens, UniProt O14842), please?
> 179%

Recorded max activation for COc1cc(-c2cnc(C3CCc4ccc([C@H](C5CC5)[C@H](C)C(=O)O)cc4O3)c(F)c2)c(F)cn1 (stereo in doubt; 31) with Free fatty acid receptor 1 (Homo sapiens, UniProt O14842), please?
> 179%
